Tested on: HeLa
Test: Inhibition of cells growth by colorimetric assay (SRB)
Conditions: read-out: LC50 HELA; HELA; SRB, 48 hours exposure
Description: This form of the assay employs 96 well cell culture microplates of 9 mm diameter (Faircloth, 1988; Mosmann, 1983). Most of the cell lines are obtained from American Type Culture Collection (ATCC) derived from different human cancer types. […] The values for mean +/− SD of data from triplicate wells are calculated. Some parameters for cellular responses can be calculated: GI=growth inhibition, TGI=total growth inhibition (cytostatic effect) and LC=cell killing (cytotoxic effect).

{"columns": ["compound", "CC50"],
 "data": [
  ["C=CCN1C2Cc3cc(C)c(OC)c(O)c3C1C1C3SCC(NC(C)=O)C(=O)OCC(c4c5c(c(C)c(OC(C)=O)c43)OCO5)N1C2C#N (centres unmarked) [compound 24]", "112 nM"],
  ["C=CCN1C2Cc3cc(C)c(OC)c(O)c3C1C1C3SCC(NC(=O)CC)C(=O)OCC(c4c5c(c(C)c(OC(C)=O)c43)OCO5)N1C2C#N (centres unmarked) [compound 27]", "786 nM"]
]}

###

Reported CC50 by item:
Test system: HT-29
Experiment: cells
Settings: read-out: LC50 HT29; HT29; SRB, 48 hours exposure
value-type: CC50 (µM)

{"columns": ["compound", "units-symbol", "value"],
 "data": [
  ["COCCOCOc1c(OC)c(C)cc2c1[C@H]1N[C@@H](C2)[C@H](C#N)N2C1CC1(O)C(=O)C(C)=C3OCOC3=C1[C@@H]2CO[Si](c1ccccc1)(c1ccccc1)C(C)(C)C (stereo partly shown)", "µM", 5.46],
  ["C=CCN1C2Cc3cc(C)c(OC)c(O)c3C1C1C3SCC(NC(=O)CC)C(=O)OCC(c4c5c(c(C)c(OC(C)=O)c43)OCO5)N1C2C#N (stereo not shown)", "µM", 14.2],
  ["COc1c(C)cc2c(c1O)C1C3C4SCC(NC(C)=O)C(=O)OCC(c5c6c(c(C)c(OC(C)=O)c54)OCO6)N3C(C#N)C(C2)N1C(C)=O (stereo not shown)", "µM", 14.4],
  ["C=CCN1C2Cc3cc(C)c(OC)c(O)c3C1C1C3SCC(NC(C)=O)C(=O)OCC(c4c5c(c(C)c(OC(C)=O)c43)OCO5)N1C2C#N (stereo not shown)", "µM", 14.5]
]}

###

Test system: A-549 cells
Assay: Inhibition of cell growth by counting cells
Format: cell-based
Settings: Homo sapiens, 72 h; a549 cells, three days of incubation
pIC50: −log10 of the molar value.
value-type: pIC50

{"columns": ["compound", "value-type", "value"],
 "data": [
  ["COc1c(C)cc2c(c1O)[C@@H]1C3[C@@H]4SCC(=O)C(=O)OC[C@@H](c5c6c(c(C)c(OC(C)=O)c54)OCO6)N3[C@@H](C#N)[C@H](C2)N1C (some centres unmarked)", "pIC50", 7.79],
  ["COc1c(C)cc2c(c1O)[C@@H]1C3[C@@H]4SCC(NC(C)=O)C(=O)OC[C@@H](c5c6c(c(C)c(OC(C)=O)c54)OCO6)N3[C@@H](C#N)[C@H](C2)N1C (some centres unmarked)", "pIC50", 9.12]
]}

###

Test system: PANC-1
Assay: Inhibition of cells growth by colorimetric assay (SRB)
Details: Homo sapiens, PANC-1, 48 h, read-out: PANC-1 LC50
Please use Y for CC50 under 4 µM and N for everything else, ties included.

{"columns": ["compound", "qualitative-label"],
 "data": [
  ["COc1c(C)cc2c(c1O)[C@H]1N[C@@H](C2)[C@H](O)N2C1[C@@H]1SC[C@]3(NCCc4c3[nH]c3ccc(C)cc43)C(=O)OC[C@H]2c2c3c(c(C)c(OC(C)=O)c21)OCO3 (some centres unmarked) [compound 66]", "N"],
  ["CCCCCCCCCCCCCCCC(=O)NC1CS[C@@H]2c3c(OC(C)=O)c(C)c4c(c3[C@H](COC1=O)N1C2[C@@H]2N[C@@H](Cc3cc(C)c(OC)c(O)c32)[C@@H]1O)OCO4 (some centres unmarked) [compound 38]", "N"],
  ["C=CCN1[C@@H]2c3c(cc(C)c(OC)c3O)C[C@H]1[C@H](O)N1C2[C@@H]2SCC(NC(C)=O)C(=O)OC[C@H]1c1c3c(c(C)c(OC(C)=O)c12)OCO3 (some centres unmarked) [compound 41]", "N"],
  ["CCCCCCCC(=O)Oc1c(C)c2c(c3c1[C@H]1SC[C@]4(NCCc5cc(O)c(OC)cc54)C(=O)OC[C@@H]3N3C1[C@@H]1N[C@@H](Cc4cc(C)c(OC)c(O)c41)[C@@H]3C#N)OCO2 (some centres unmarked) [compound 52]", "Y"],
  ["C=CCN1[C@@H]2c3c(cc(C)c(OC)c3O)C[C@H]1[C@H](O)N1C2[C@@H]2SC[C@]3(NCCc4cc(O)c(OC)cc43)C(=O)OC[C@H]1c1c3c(c(C)c(OC(C)=O)c12)OCO3 (some centres unmarked) [compound 67]", "Y"]
]}
